src = ChEMBL document CHEMBL2086249

Assay: Plasma clearance in Beagle dog at 2 mg/kg, iv and […] mg/kg, po
Assay type: ADME, organism-based, Canis lupus familiaris
PROPERTY_NAME: clearance
Remember to follow the number with its unit.

Requested field: clearance. Item: `CC(C)c1nc(N2CCN(c3ncc(OCc4ccncc4C#N)cn3)[C@H](C)C2)no1`
3.6 mL/min/kg

---

Assay: Volume of distribution at steady state in Beagle dog at 2 mg/kg, iv and 13 mg/kg, po
Type: ADME, organism-based, Canis lupus familiaris
Conditions: in vivo, read-out: Vdss
PROPERTY_NAME: Vd (L/kg)
Quick reminder: number only, in L/kg, skip the unit.

Requested field: Vd. Item: `CC(C)c1nc(N2CCN(c3ncc(OCc4ccncc4C#N)cn3)[C@H](C)C2)no1`
4.1
